Assay: in vivo
Settings: rat, po, 25 mg/kg, 6 h
Experimental: In another study designed to explore the differences between pimecrolimus and FK506 and to determine whether these differences might be associated with a different tissue distribution, the exposure to pimecrolimus and FK506 in various organs after oral administration were measured. Animals received 2 oral doses of 25 mg/kg in an interval of 2 hours. […] The AUC0-24h in skin calculated for pimecrolimus was twice as high as with FK506. […]
measured.attribute: skin/blood concentration ratio

Value of measured skin/blood concentration ratio for the entry C=CC[C@@H]1/C=C(\C)C[C@H](C)C[C@H](OC)[C@H]2O[C@@](O)(C(=O)C(=O)N3CCCC[C@H]3C(=O)O[C@H](/C(C)=C/[C@@H]3CC[C@@H](O)[C@H](OC)C3)[C@H](C)[C@@H](O)CC1=O)[C@H](C)C[C@@H]2OC [FK506, tacrolimus, reference compound] : 1.6
